# key: entry, value: Kd
- PROTOCOL DETAILS: SPR (Biacore) Protein A mAb capture, Compound A injected
- CONDITION PARAMETERS: 37° C., binding to Compound A, apparent, for rank ordering only
Write the number in s⁻¹ without appending the unit.

Worked examples follow.
MOLECULE	OBSERVED VALUE
26D5-295-C07-mAb: human IgG1f/kappa mAb; VH SEQ ID NO: 67, VL SEQ ID NO: 88 (antibody, V domains shown) VH: EVQLVESGGGLIQPGGSLRLSCAASGFTVSSNAMSWVRQAPGKGLEWVSFIYSGGRTYYADSVKGRFTISRDNSKNTLYLQMNSLRAEDTAVYYCARGGFGGGDYWGQGTLVTVSS VL: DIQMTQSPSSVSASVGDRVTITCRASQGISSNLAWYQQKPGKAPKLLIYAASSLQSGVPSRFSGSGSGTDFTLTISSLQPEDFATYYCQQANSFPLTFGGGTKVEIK	0.00033
26D5-295-F07-mAb: human IgG1f/kappa mAb; VH SEQ ID NO: 64, VL SEQ ID NO: 88 (antibody, V domains shown) VH: EVQLVESGGGLIQPGGSLRLSCAASGFTVSENAMSWVRQAPGKGLEWVSFIYSGGRTYYADSVKGRFTISRDNSKNTLYLQMNSLRAEDTAVYYCARGGFGGGDYWGQGTLVTVSS VL: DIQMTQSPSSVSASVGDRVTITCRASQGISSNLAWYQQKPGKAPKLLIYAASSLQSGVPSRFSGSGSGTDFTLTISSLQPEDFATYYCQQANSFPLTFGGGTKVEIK	0.00017
26D5-295-A08-mAb: human IgG1f/kappa mAb; VH SEQ ID NO: 74, VL SEQ ID NO: 88 (antibody, V domains shown) VH: EVQLVESGGGLIQPGGSLRLSCAASGFTVSENYMSWVRQAPGKGLEWVSFIYPGGRTYYADSVKGRFTISRDNSKNTLYLQMNSLRAEDTAVYYCARAGFGGGDYWGQGTLVTVSS VL: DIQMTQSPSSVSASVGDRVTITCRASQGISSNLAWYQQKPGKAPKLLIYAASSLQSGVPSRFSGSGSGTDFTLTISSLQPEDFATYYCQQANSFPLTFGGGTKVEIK	0.00059
26D5-296-G07-mAb: human IgG1f/kappa mAb; VH SEQ ID NO: 65, VL SEQ ID NO: 94 (antibody, V domains shown) VH: EVQLVESGGGLIQPGGSLRLSCAASGFTVSENYMSWVRQAPGKGLEWVSFIYSGGRTYYADSVKGRFTISRDNSKNTLYLQMNSLRAEDTAVYYCARAGFGGGDYWGQGTLVTVSS VL: DIQMTQSPSSVSASVGDRVTITCRASQYISSNLAWYQQKPGKAPKLLIYAASSLQSGVPSRFSGSGSGTDFTLTISSLQPEDFATYYCQQANSFPLTFGGGTKVEIK	0.00032
26D5-296-D03-mAb: human IgG1f/kappa mAb; VH SEQ ID NO: 76, VL SEQ ID NO: 88 (antibody, V domains shown) VH: EVQLVESGGGLIQPGGSLRLSCAASGFTVSSNYMSWVRQAPGKGLEWVSFIYSGGETFYADSVKGRFTISRDNSKNTLYLQMNSLRAEDTAVYYCARGGFGGGDYWGQGTLVTVSS VL: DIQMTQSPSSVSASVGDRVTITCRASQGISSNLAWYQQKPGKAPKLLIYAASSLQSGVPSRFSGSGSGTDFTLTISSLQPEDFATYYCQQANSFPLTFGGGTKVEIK	0.0012

If you can, please state the reported Kd value of 26D5-296-F08-mAb: human IgG1f/kappa mAb; VH SEQ ID NO: 73, VL SEQ ID NO: 95 (antibody, V domains shown) VH: EVQLVESGGGLIQPGGSLRLSCAASGFTVSSNYMSWVRQAPGKGLEWVSFIYPGGETYYADSVKGRFTISRDNSKNTLYLQMNSLRAEDTAVYYCARGGFGGGDYWGQGTLVTVSS VL: DIQMTQSPSSVSASVGDRVTITCRASQYIESNLAWYQQKPGKAPKLLIYAASSLQSGVPSRFSGSGSGTDFTLTISSLQPEDFATYYCQQANSFPLTFGGGTKVEIK . 0.0006
